Where these numbers come from: the supplement of paper PMC9170038

- System: MS2 coat protein
- test_summary: apparent KD of MS2 coat protein; designed switch direction (-1 OFF switch, 1 ON switch): -1; higher = weaker reporter binding
- run_parameters: input ligand: none
So I've got a bunch of sequences here, and I need their apparent KD of MS2 coat protein values.
Give bare numbers, in nM.

Illustrative cases are given below, each with its answer.
{"columns": ["residue_codes", "unit_info", "apparent KD of MS2 coat protein"],
 "data": [
  ["UAACUGCUCGUCUUGUUAAACAUGAGGAUCACCCAUGUCAGCCUGUAAGGGUACGGUAGAUAGGCCCGAUUGCAUGA [Eternabot (L1) Solution 11] (Eterna round: R97, puzzle: Sensor, turn-off variant 1)", "nM", 31.2],
  ["ACAUGUAAUGCAGGAUAUGGGACACAUGAGGAUCACCCAUGUGACCAGAGGUAAUGCUAAGAGUCUCAGAAGGGUAUGUACAUG [Ex NG2 #49] (Eterna round: R96, puzzle: Exclusion NG 2)", "nM", 19]
]}

# ---- query sequence ----
Record summary for GGUCUUCAAGUCAGGAUAUCGUCUAAUAGAUCUAACGAGAAGGGACAUGAGGAUCACCCAUGUCGUCUCAUCAG [Ex4 #19] (Eterna round: R97, puzzle: Brourd's mod of Exclusion 4) : reported apparent KD of MS2 coat protein = 16.5

###

So I've got a bunch of sequences here, and I need their apparent KD of K4 kissing-loop reporter values.
- Tested on: K4 kissing-loop RNA reporter;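 further: bound reporter read as fluorescence of individual clusters on recovered sequencing chips by microscopy, with normalized cluster intensities fitted with a binding model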
- test_summary: apparent KD of K4 kissing-loop reporter; higher = weaker reporter binding
- run_parameters: Eterna round: R107; input ligand: theophylline 20 uM
Give bare numbers, in nM.

{"columns": ["residue_codes", "unit_info", "apparent KD of K4 kissing-loop reporter"],
 "data": [
  ["UGACUGGAUGGAAGGAGCGCUAAACUCCUAGUGAUGUUAGGGACACGAGGCAAAGCCUCGAAGCAGGUAGGUCGCCAUCUAGUCU [FiskerMod 22 - Jieux - Same State - Arginine B]", "nM", 182],
  ["UUAGUCUAGAGAAGGAGCGAGUGAUGUUCGCAGCCCAAAUAAUAAUAAUAAUAAGGGCAUCCUCAGGUAGGUCGCUCUAGACAUU [AK5 Exc Arginine B]", "nM", 354],
  ["AAAAUAAACCAGUGAUGUUGGUAACCAGAUACCAGCGACGAAAGUCGCCCUUGGCAGCUGUGGACGUACAAAAUAAGUACGUCCU", "nM", 223]
]}

Parameters: items (list). Returns: apparent KD of K4 kissing-loop reporter for each item.
1. UGUAAGCGCGUAGAUACCAGCAGACGAGUGAUGUUCAAGAGAUUAAGGAAAAGAAAGUAAUGCCCUUGGCAGCUAAUCAUAAGCG [whbob_Ex_Theo_B_sa93]
2. UCUCGGGCCAGUGAUGUUGGCGGCUAGUGGCGAGGACCGGUACGGCCGCCACUCGGCGCAGCAGCGGAGUGAUGUUUCGUGAGUA [Same State Tryptophan A GF 17]
3. AAGUGAUGUUGUAGUGAUGUUGUGAUGUUGCAGGAUAUAUAGUGAUGUAGAAGGGUAAGUACUGAUGUUGUUUGUGAGUGAUGUU [zrrszrmullin]

Return:
[331, 441, 66.9]

Parameters: items (list). Returns: apparent KD of K4 kissing-loop reporter for each item.
1. AAAAGCCUACAGGAUACCAGCCGAAUACUAAAAGGCUGGAGUGAUGUUCCAGCUUGCCGCGGCCCUUGGCAGCCUAGCUGGGUGA [Soatriti]
2. GGCGAAUAAAAUCGCCUAGAGAGAAAGGAUACCAGCACCCGGCGGUGCCCUUGGCAGCCUAGCCCAGUGAUGUUGGGUCCUCUAA [Biaveinbe]
3. CGAGUCAAUUCAGAUACCAGCCAAUUAAAGUCGAGUGAUGUUCGACAAUGAACAUCCAAAGGCCCUUGGCAGCUGAAUUGGGAAC [Same State Theophylline B GF 18]
4. AGACUACCACACUGUCAAUAGACAGUGAACUCGGAUAUGCUGAUAAGCAGAAGGAGUGAUGUUCCCAGGUAGUCAAUAAAAUAAU [FmnAX 13 C32+C66]
5. UCUAACAAAUCGGCCGCCACUGAAAUAACCCAGGAGUGAUGUUCCAUCGUCCUAGACUACUCUUCCAGGACCGGGAUCUGUGUUC [theeternabot_exclusion_KL_Trp_B_25]

Return:
1: 341; 2: 345; 3: 228; 4: 233; 5: 472

Record summary for AGGCACGAGCAAGGAUAUCGAGUAGAGUGAUGUUCUGCCUGGGUUGGCGCGCAAGGGCCUUCCCAGCGAGAAGGUGCUCGUGCCU [#2 Same State - FMN A Attempt #11 (HarryS)] : reported apparent KD of K4 kissing-loop reporter = 682
